TARGET_SYSTEM: M. ramosa APAH (Mycoplana ramosa, UniProt Q48935)
Sequence (Q48935 whole entry): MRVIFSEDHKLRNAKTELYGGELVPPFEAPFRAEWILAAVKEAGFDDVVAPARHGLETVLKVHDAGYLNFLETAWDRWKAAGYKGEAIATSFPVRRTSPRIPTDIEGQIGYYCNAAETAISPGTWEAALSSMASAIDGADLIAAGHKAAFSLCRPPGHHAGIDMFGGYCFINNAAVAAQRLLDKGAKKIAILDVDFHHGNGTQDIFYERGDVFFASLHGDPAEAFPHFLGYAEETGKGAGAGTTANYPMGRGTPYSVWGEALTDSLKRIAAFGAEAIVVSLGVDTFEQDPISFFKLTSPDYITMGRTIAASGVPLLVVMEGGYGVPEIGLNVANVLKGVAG
ASSAY_INFO: Fluorimetric APAH inhibition assay
Type: biochemical
CONDITION_DETAILS: qualitative range stated in text
MEASUREMENT_KIND: Inhibitory potency against APAH, IC50 range in words

Reference set (7 entries):
• Cl.Cl.NCCCNCCCCCB(O)O = mid-micromolar range
• CC(=O)SCC(=O)CCCCCNCCCN.Cl.Cl = mid-micromolar range
• Cl.Cl.NCCCNCCCCCS = mid-micromolar range
• Cl.Cl.NCCCNCCCCCC(=O)O = millimolar range
• CC(=O)CCCCCNCCCN.Cl.Cl = mid-micromolar range
• CS(=O)(=O)CCCCCNCCCN.Cl.Cl = millimolar range
• CC(=O)SCCCCCNCCCN.Cl.Cl = millimolar range

Ask: So what's the measured Inhibitory potency against APAH, IC50 range in words for this one? COCC(=O)CCCCCNCCCN.Cl.Cl
Reply: mid-micromolar range

---

TARGET_SYSTEM: M. ramosa APAH (Mycoplana ramosa)
ASSAY_INFO: Fluorimetric APAH inhibition assay
Assay type: biochemical
MEASUREMENT_KIND: IC50 (µM)
Numbers only; they are read as µM.

Ask: So what does the record say about IC50 for CC(=O)SCC(=O)CCCCCNCCCN.Cl.Cl ?
Reply: 4000

Ask: Consider the compound Cl.Cl.NCCCNCCCCCC(=O)C(F)(F)F and give its measured IC50.
Reply: 38
